# targetOrTestSystem: von Willebrand factor (VWF) (Homo sapiens, UniProt P04275 P04275:764-2813)
# testMethodNotes: filter; Bmax 56%; 2 mM CaCl2, 37 C
# testConditions: tags: factor VIII free, Haematologic Technologies Inc
observationType: Kd (nM)
Give the value, in units of nM, as a plain number.

Would you kindly share the measured Kd for ACGAACUGCCCUCGAUCGACGCACAGACGUUUUUU (ssRNA, mAmCmGmAmAmCmUmGfCfCfCmUmCmGmAmUmCmGmAfCfGfCmAmCmAmGmAmCmGmUmUmUmUmUmU-idT) [T79 vrt7 (DTRI-031)] ?
11.2
